Entry source: patent US9283280B2

# measurement.description: Intranasal triptans with alkylsaccharide in rats, plasma levels by HPLC
# Type: in vivo
# measurement.setup: Sumatriptan 6.2 mg/kg intranasal; alkylsaccharide 0.1%
For each entry below, report its Tmax value.

Name the reported Tmax value associated with the molecule CCCCCCCCCCCCCCO[C@@H]1O[C@H](CO)[C@@H](O[C@H]2O[C@H](CO)[C@@H](O)[C@H](O)[C@H]2O)[C@H](O)[C@H]1O [tetradecyl maltoside] ~5 to 15 min

Now the molecule CCCCCCCCCCO[C@@H]1O[C@H](CO)[C@@H](O[C@H]2O[C@H](CO)[C@@H](O)[C@H](O)[C@H]2O)[C@H](O)[C@H]1O [decyl maltoside, decyl-β-D-maltoside] ~60 to 120 min

One more molecule: CCCCCCCCCCCCO[C@@H]1O[C@H](CO)[C@@H](O[C@H]2O[C@H](CO)[C@@H](O)[C@H](O)[C@H]2O)[C@H](O)[C@H]1O [dodecyl maltoside] ~5 to 15 min

Could you do the same for CCCCCCCCO[C@@H]1O[C@H](CO)[C@@H](O[C@H]2O[C@H](CO)[C@@H](O)[C@H](O)[C@H]2O)[C@H](O)[C@H]1O [octyl maltoside, Octyl-β-D-maltoside] , please? ~60 to 120 min

Repeat with CCCCCCCCCCCCCO[C@@H]1O[C@H](CO)[C@@H](O[C@H]2O[C@H](CO)[C@@H](O)[C@H](O)[C@H]2O)[C@H](O)[C@H]1O [tridecyl maltoside, tridecyl-β-D-maltoside] ~5 to 15 min

====

# measurement.description: Intranasal triptans with alkylsaccharide in rats, plasma levels by HPLC
# Type: in vivo
# measurement.setup: Sumatriptan 6.2 mg/kg intranasal; alkylsaccharide 0.05%
observable: Ratio Cmax(alkylsacch)/Cmax(No alkylsacch)

These solved cases illustrate the format of a correct answer.
| compound | value.observed |
| --- | --- |
| CCCCCCCCCCCCCCO[C@@H]1O[C@H](CO)[C@@H](O[C@H]2O[C@H](CO)[C@@H](O)[C@H](O)[C@H]2O)[C@H](O)[C@H]1O [tetradecyl maltoside] | ≧1.5 |
| CCCCCCCCO[C@@H]1O[C@H](CO)[C@@H](O[C@H]2O[C@H](CO)[C@@H](O)[C@H](O)[C@H]2O)[C@H](O)[C@H]1O [octyl maltoside, Octyl-β-D-maltoside] | ≦1.5 |
| CCCCCCCCCCCCO[C@@H]1O[C@H](CO)[C@@H](O[C@H]2O[C@H](CO)[C@@H](O)[C@H](O)[C@H]2O)[C@H](O)[C@H]1O [dodecyl maltoside] | ≧1.5 |
| CCCCCCCCCCCCCO[C@@H]1O[C@H](CO)[C@@H](O[C@H]2O[C@H](CO)[C@@H](O)[C@H](O)[C@H]2O)[C@H](O)[C@H]1O [tridecyl maltoside, tridecyl-β-D-maltoside] | ≧1.5 |

Entry under review: CCCCCCCCCCO[C@@H]1O[C@H](CO)[C@@H](O[C@H]2O[C@H](CO)[C@@H](O)[C@H](O)[C@H]2O)[C@H](O)[C@H]1O [decyl maltoside, decyl-β-D-maltoside] . Reported Ratio Cmax(alkylsacch)/Cmax(No alkylsacch)? ≦1.5

====

# measurement.description: Intranasal triptans with alkylsaccharide in rats, plasma levels by HPLC;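 also: rats in groups of eight given 20 µL into one nostril, dose expressed as triptan free base, Cmax and Tmax read from plasma concentration–time curves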
# Assay type: in vivo
# measurement.setup: Naratriptan 0.22 mg/kg intranasal; alkylsaccharide 2%
What Tmax was measured for each of the following?

Param item = CCCCCCCCCCCCO[C@@H]1O[C@H](CO)[C@@H](O[C@H]2O[C@H](CO)[C@@H](O)[C@H](O)[C@H]2O)[C@H](O)[C@H]1O [dodecyl maltoside] ; retrieve measured Tmax. ~5 to 15 min

What do we get for CCCCCCCCCCO[C@@H]1O[C@H](CO)[C@@H](O[C@H]2O[C@H](CO)[C@@H](O)[C@H](O)[C@H]2O)[C@H](O)[C@H]1O [decyl maltoside, decyl-β-D-maltoside] ? ~5 to 15 min

Now consider CCCCCCCCCCCCCO[C@@H]1O[C@H](CO)[C@@H](O[C@H]2O[C@H](CO)[C@@H](O)[C@H](O)[C@H]2O)[C@H](O)[C@H]1O [tridecyl maltoside, tridecyl-β-D-maltoside] and answer again. ~5 to 15 min

Proceed to CCCCCCCCCCCCCCO[C@@H]1O[C@H](CO)[C@@H](O[C@H]2O[C@H](CO)[C@@H](O)[C@H](O)[C@H]2O)[C@H](O)[C@H]1O [tetradecyl maltoside] ~5 to 15 min

Proceed to CCCCCCCCO[C@@H]1O[C@H](CO)[C@@H](O[C@H]2O[C@H](CO)[C@@H](O)[C@H](O)[C@H]2O)[C@H](O)[C@H]1O [octyl maltoside, Octyl-β-D-maltoside] ~60 to 120 min
